Listing of recorded log10 of AC50 by entry.
- Assayed target: human CYP2C19 (Homo sapiens, UniProt P33261)
- Sequence (P33261 whole entry): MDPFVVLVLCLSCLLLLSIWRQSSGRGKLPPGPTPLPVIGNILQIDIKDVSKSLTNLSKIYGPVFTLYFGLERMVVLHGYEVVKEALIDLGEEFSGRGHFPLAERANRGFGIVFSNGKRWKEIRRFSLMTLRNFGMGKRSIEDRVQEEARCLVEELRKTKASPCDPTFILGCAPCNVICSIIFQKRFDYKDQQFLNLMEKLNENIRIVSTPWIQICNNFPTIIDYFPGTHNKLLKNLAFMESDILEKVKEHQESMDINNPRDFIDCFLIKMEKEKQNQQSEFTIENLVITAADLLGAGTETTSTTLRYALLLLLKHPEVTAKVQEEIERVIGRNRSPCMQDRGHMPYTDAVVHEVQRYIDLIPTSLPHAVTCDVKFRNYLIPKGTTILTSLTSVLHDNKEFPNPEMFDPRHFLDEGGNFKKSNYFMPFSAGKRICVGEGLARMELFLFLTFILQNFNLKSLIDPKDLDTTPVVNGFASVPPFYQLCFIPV
- Protocol summary: biochemical
For clarity, the numbers are log10 values of AC50 expressed in µM.

Worked set:
CCCOC(=O)c1ccc(C(=O)OCCC)nc1 [Dipropyl 2,5-pyridinedicarboxylate] ... 0.78
CC(=O)OC(c1ccccc1)C(Cl)(Cl)Cl (stereo not drawn) [2,2,2-Trichloro-1-phenylethyl acetate] ... 1.55

### Prompt I'm curious: which log10 of AC50 was measured for NS(=O)(=O)c1ccc(NCc2ccccc2)cc1 [Benzylsulfamide] tested on human CYP2C19 (Homo sapiens, UniProt P33261)?
### Response 0.58

### Prompt I'm curious: which log10 of AC50 was measured for "COC(=O)c1c(Cl)c(Cl)c(C(=O)OC)c(Cl)c1Cl" tested on human CYP2C19 (Homo sapiens, UniProt P33261)?
### Response 1.34

### Prompt I'm curious: which log10 of AC50 was measured for "Oc1ccc(Sc2ccc(O)cc2)cc1" tested on human CYP2C19 (Homo sapiens, UniProt P33261)?
### Response 1.56

### Prompt I'm curious: which log10 of AC50 was measured for "CC(C)c1ccccc1O" tested on human CYP2C19 (Homo sapiens, UniProt P33261)?
### Response 0.96

---

- Assayed target: UniProtKB P33261
- Protocol summary: biochemical
- Assay setup: CYP2C19 AC50 (half-maximal activity concentration)
Observed property: AC50 (µM)
Quick note: give the figure in µM, leave out the unit.

Worked set:
Cc1c(C)c([N+](=O)[O-])c(C(C)(C)C)c([N+](=O)[O-])c1C ... 22.8
CC(O)(c1ccc(Cl)cc1)c1ccc(Cl)cc1 ... 0.12
N#Cc1c[nH]cc1-c1cccc2c1OC(F)(F)O2 ... 5.3
Cc1ccc(C(=O)c2ccccc2)cc1 ... 13.3
CCOC(=O)C(C)Oc1ccc(Oc2cnc3cc(Cl)ccc3n2)cc1 (stereo not drawn) ... 36.2
O=[N+]([O-])c1ccccc1-c1ccccc1 ... 30.4
CCCCC(CC)COP(=O)(O)OCC(CC)CCCC (stereo not drawn) [Bis(2-ethylhexyl) phosphate] ... 40.6
CC(=O)Oc1ccc(C2(c3ccc(OC(C)=O)cc3)C(=O)Nc3ccccc32)cc1 [Oxyphenisatin acetate] ... 11.9

### Prompt # input molecule: "O=[N+]([O-])C(Br)(CO)CO" ; wanted: its AC50
### Response 5.81

---

// log10(IC50) collected for human CYP2D6 (Homo sapiens, UniProt P10635)
For clarity, the numbers are log10 values of IC50 expressed in µM.

Cl.FC(F)(F)c1cccc(C2=CCN(CCc3ccc4ccccc4c3)CC2)c1 [Xaliproden hydrochloride] ... -0.55

### Prompt I'm curious: which log10(IC50) was measured for "c1cc(CCCc2ccncc2)ccn1" tested on human CYP2D6 (Homo sapiens, UniProt P10635)?
### Response 0.19

### Prompt I'm curious: which log10(IC50) was measured for CC(=O)O.CC(C)c1ccc2c(c1)CC[C@H]1[C@](C)(CN)CCC[C@]21C [Dehydroabietylamine acetate] tested on human CYP2D6 (Homo sapiens, UniProt P10635)?
### Response 0.18

### Prompt I'm curious: which log10(IC50) was measured for COS(=O)(=O)[O-].Cn1c(-c2ccccc2)cc(-c2ccccc2)[n+]1C [Difenzoquat metilsulfate] tested on human CYP2D6 (Homo sapiens, UniProt P10635)?
### Response -0.36

### Prompt I'm curious: which log10(IC50) was measured for COC(=O)C1=C(C)NC(C)=C(C(=O)O[C@@H]2CCCN(Cc3ccccc3)C2)[C@@H]1c1cccc([N+](=O)[O-])c1.Cl (racemic) [rac Benidipine hydrochloride] tested on human CYP2D6 (Homo sapiens, UniProt P10635)?
### Response 1.13

### Prompt I'm curious: which log10(IC50) was measured for "COc1ccc(OC)c(N=Nc2c(O)ccc3ccccc23)c1" tested on human CYP2D6 (Homo sapiens, UniProt P10635)?
### Response 1.13

### Prompt I'm curious: which log10(IC50) was measured for "CCOP(=O)([O-])OCC.CCn1cc[n+](C)c1" tested on human CYP2D6 (Homo sapiens, UniProt P10635)?
### Response -0.21

### Prompt I'm curious: which log10(IC50) was measured for "COC(=O)c1c(C)cc(O)c(C)c1O" tested on human CYP2D6 (Homo sapiens, UniProt P10635)?
### Response 1.52
